Reported NanoBRET Fold Response values for a set of molecules
target: HTR1F (Homo sapiens); construct: purchased Promega (in-house HiBiT-GPCR construct library, NanoBRET); assay: NanoBRET screen HiBiT-HTR1F in HEK293; assay type: binding; conditions: HTR1F; tracer 0.1μM
Sequence (P30939 whole entry): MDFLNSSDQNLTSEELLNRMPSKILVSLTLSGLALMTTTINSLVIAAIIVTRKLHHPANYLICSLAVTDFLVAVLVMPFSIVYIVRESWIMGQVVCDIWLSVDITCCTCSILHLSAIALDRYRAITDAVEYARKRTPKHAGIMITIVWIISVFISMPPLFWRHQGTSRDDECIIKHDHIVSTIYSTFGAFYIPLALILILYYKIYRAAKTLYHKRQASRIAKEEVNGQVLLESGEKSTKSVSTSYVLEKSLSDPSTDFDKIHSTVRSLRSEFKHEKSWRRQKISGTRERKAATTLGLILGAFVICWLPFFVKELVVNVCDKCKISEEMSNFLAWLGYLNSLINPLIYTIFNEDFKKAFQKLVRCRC
Number only, please.

// solved cases for NanoBRET Fold Response follow
>  <molecule>
CC(C)N(CC[C@H](c1ccccc1)c1cc(CCNC(=O)c2ccc(CNC(=O)CCc3ccc4n3[B-](F)(F)[N+]3=C(c5ccc[nH]5)C=CC3=C4)cc2)ccc1O)C(C)C

>  <NanoBRET Fold Response>
1.24

$$$$
>  <molecule>
O=C(CCc1ccc2n1[B-](F)(F)[N+]1=C(c3ccc[nH]3)C=CC1=C2)NCc1ccc(C(=O)NCCOCCC(=O)N[C@@H]2CC[C@@]3(O)[C@H]4Cc5ccc(O)c6c5[C@@]3(CCN4CC3CC3)[C@H]2O6)cc1 [Naltrexone-3-NB590]

>  <NanoBRET Fold Response>
1.35

$$$$
>  <molecule>
N#CN=C(NCCCOc1cccc(CN2CCCCC2)c1)NCCNC(=O)CCOCCOCCOCCOCCNC(=O)CCc1ccc2n1[B-](F)(F)[N+]1=C(c3ccc[nH]3)C=CC1=C2

>  <NanoBRET Fold Response>
1.07

$$$$
>  <molecule>
CC(C)N(CC[C@H](c1ccccc1)c1cc(CCNC(=O)CCOCCOCCOCCOCCNC(=O)CCc2ccc3n2[B-](F)(F)[N+]2=C(c4ccc[nH]4)C=CC2=C3)ccc1O)C(C)C

>  <NanoBRET Fold Response>
0.90

$$$$

Let us examine a further case.
API: value(readout=NanoBRET Fold Response, system=HTR1F (Homo sapiens)) for record Cc1nc2n(c(=O)c1CCN1CCC(c3noc4cc(F)ccc34)CC1)CCCC2OC(=O)NCCOCCOCCOCCOCCNC(=O)CCc1ccc2n1[B-](F)(F)[N+]1=C(c3ccc[nH]3)C=CC1=C2 (centres unmarked)
0.98
